- targetDesc: DNA polymerase I (Escherichia coli, UniProt P00582)
- Construct: purchased BRL (Nick Translation System)
- Sequence (P00582 whole entry): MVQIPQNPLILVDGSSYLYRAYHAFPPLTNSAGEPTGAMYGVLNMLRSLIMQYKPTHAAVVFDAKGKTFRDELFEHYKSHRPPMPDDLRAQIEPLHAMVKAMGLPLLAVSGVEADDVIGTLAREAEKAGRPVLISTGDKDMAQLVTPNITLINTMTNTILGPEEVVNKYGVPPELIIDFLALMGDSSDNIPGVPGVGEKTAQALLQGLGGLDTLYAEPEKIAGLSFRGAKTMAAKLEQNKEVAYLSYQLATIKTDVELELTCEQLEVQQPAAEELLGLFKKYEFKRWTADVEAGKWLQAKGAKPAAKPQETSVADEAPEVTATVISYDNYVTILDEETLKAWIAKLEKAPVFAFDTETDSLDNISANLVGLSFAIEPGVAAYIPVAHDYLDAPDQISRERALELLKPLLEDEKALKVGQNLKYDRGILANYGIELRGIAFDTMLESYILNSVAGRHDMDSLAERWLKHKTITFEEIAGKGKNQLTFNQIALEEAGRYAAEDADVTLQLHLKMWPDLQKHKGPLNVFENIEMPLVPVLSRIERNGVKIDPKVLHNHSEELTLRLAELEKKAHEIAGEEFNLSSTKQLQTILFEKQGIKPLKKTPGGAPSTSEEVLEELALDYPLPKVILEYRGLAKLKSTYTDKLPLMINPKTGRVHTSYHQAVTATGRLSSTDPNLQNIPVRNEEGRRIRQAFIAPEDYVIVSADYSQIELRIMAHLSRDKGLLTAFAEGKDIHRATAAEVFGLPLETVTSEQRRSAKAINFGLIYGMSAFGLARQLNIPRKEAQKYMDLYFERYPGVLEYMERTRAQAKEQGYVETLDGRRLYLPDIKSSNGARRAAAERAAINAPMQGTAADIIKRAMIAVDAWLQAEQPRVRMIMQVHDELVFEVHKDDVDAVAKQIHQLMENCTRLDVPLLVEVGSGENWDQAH
- assay: Incorporation of dATP/dCTP and analogs into plasmid DNA by nick translation (3H-dGTP tracer)
- Assay type: biochemical, E. coli
- conditionInfo: 1.5 h, 90 min, 15° C.; tracer 3H-dGTP incorporation relative to reaction mixture containing dNTP's and no derivatives; duplicate figures = two determinations; read-out: % Incorporation (90 min.)
- Method: Incorporation into Plasmid DNA of Biotinylated dATP Derivatives The time course and levels of incorporation were studied as a function of linker size. […] At each time point of interest, 2 μl from the reaction mixture was withdrawn, spotted on glass fiber filters (GF/C), washed in 10% trichloroacetic acid (TCA) once and 5% TCA twice, and dried after washing in alcohol. The filters were counted in a liquid scintillation counter. […]
Quick reference for activity at 20 µM among some compounds

| compound | activity at 20 µM [%] |
| --- | --- |
| O=C(CCCCCNC(=O)CCCC[C@@H]1SC[C@@H]2NC(=O)N[C@@H]21)NCCCCCCNC(=O)CNc1ncnc2c1ncn2[C@H]1C[C@H](O)[C@@H](COP(=O)(O)OP(=O)(O)OP(=O)(O)O)O1 | 6.7 |
| Nc1ccn([C@H]2C[C@H](O)[C@@H](COP(=O)(O)OP(=O)(O)OP(=O)(O)O)O2)c(=O)n1 [dCTP, reference compound] | 100 |
| O=C(CCCC[C@@H]1SC[C@@H]2NC(=O)N[C@@H]21)NCCCCCC(=O)NCCNc1ncnc2c1ncn2[C@H]1C[C@H](O)[C@@H](COP(=O)(O)OP(=O)(O)OP(=O)(O)O)O1 | 15 |

---

- targetDesc: DNA polymerase I (Escherichia coli, UniProt P00582)
- Construct: purchased BRL (Nick Translation System)
- assay: Incorporation of dATP/dCTP and analogs into plasmid DNA by nick translation (3H-dGTP tracer)
- Type: biochemical, E. coli
- conditionInfo: 1.5 h, 90 min, 15° C.; tracer 3H-dGTP incorporation relative to reaction mixture containing dNTP's and no derivatives; duplicate figures = two determinations; read-out: % Incorporation (90 min.)
recordedEndpoint: activity at 20 µM (%)

| compound | recordedEndpoint | readoutNumber |
| --- | --- | --- |
| O=C(CCCC[C@@H]1SC[C@@H]2NC(=O)N[C@@H]21)NCCCCCCNC(=O)CNc1ncnc2c1ncn2[C@H]1C[C@H](O)[C@@H](COP(=O)(O)OP(=O)(O)OP(=O)(O)O)O1 | activity at 20 µM | 6.9 |
| Nc1ncnc2c1ncn2[C@H]1C[C@H](O)[C@@H](COP(=O)(O)OP(=O)(O)OP(=O)(O)O)O1 [dATP, reference compound] | activity at 20 µM | 100 |
| NCCCCCCNc1ccn([C@H]2C[C@H](O)[C@@H](COP(=O)(O)OP(=O)(O)OP(=O)(O)O)O2)c(=O)n1 | activity at 20 µM | 74 |
| O=C(CCCC[C@@H]1SC[C@@H]2NC(=O)N[C@@H]21)NCCCCCCNc1ccn([C@H]2C[C@H](O)[C@@H](COP(=O)(O)OP(=O)(O)OP(=O)(O)O)O2)c(=O)n1 | activity at 20 µM | 44 |
| O=C(CCCCCNC(=O)CCCC[C@@H]1SC[C@@H]2NC(=O)N[C@@H]21)NCCCCCCNc1ncnc2c1ncn2[C@H]1C[C@H](O)[C@@H](COP(=O)(O)OP(=O)(O)OP(=O)(O)O)O1 | activity at 20 µM | 33 |
